System: Abf1 (UniProt P14164)
Sequence: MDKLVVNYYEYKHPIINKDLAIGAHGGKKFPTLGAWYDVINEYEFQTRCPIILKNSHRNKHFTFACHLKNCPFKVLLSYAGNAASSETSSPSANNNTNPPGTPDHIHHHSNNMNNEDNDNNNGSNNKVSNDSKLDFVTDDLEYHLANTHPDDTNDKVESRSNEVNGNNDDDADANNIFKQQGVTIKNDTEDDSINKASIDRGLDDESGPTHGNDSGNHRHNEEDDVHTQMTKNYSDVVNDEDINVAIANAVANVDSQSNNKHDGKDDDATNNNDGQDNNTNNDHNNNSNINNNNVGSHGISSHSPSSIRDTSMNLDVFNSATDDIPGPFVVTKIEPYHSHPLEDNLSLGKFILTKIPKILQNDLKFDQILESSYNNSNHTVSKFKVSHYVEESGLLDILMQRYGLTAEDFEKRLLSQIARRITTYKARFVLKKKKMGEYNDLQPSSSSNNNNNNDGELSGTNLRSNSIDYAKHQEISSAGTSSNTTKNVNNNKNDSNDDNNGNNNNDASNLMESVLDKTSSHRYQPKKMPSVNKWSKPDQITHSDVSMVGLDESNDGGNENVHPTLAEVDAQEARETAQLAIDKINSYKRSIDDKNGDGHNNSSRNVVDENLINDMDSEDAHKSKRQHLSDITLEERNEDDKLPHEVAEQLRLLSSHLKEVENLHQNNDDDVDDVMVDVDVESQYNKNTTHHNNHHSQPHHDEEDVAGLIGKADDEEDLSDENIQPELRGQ
Experiment: PBM E-score (8-mer binding enrichment) (E-score (-0.5 to 0.5)); higher = stronger / more preferred TF binding
Assay Setup: protein concentration: 200 nM; construct: GST-full length
The full ranking holds about 33,000 sequences; the median of “E-score (-0.5 to 0.5)” is about -0.015, and the highest 2% start at about 0.3. Many of the other results were omitted from the sample, so the highest values are more common in it than they were.

Sequence Record: GCAATGAC
System: Abf1 (UniProt P14164)
PBM E-score: 0.245
//
Sequence Record: CAAGTTGA
System: Abf1 (UniProt P14164)
PBM E-score: -0.187
//
Sequence Record: AAAATCAG
System: Abf1 (UniProt P14164)
PBM E-score: 0.193
//
Sequence Record: GGTCGTAC
System: Abf1 (UniProt P14164)
PBM E-score: 0.212
//
Sequence Record: ATACCGAA
System: Abf1 (UniProt P14164)
PBM E-score: 0.189
//
Sequence Record: ACTGATAA
System: Abf1 (UniProt P14164)
PBM E-score: 0.126
//
Sequence Record: CGTTTGGC
System: Abf1 (UniProt P14164)
PBM E-score: 0.0893
//
Sequence Record: GGATGTCA
System: Abf1 (UniProt P14164)
PBM E-score: 0.171
//
Sequence Record: AAGACGAG
System: Abf1 (UniProt P14164)
PBM E-score: -0.0454
//
Sequence Record: ATACCCCA
System: Abf1 (UniProt P14164)
PBM E-score: 0.0583
//
Sequence Record: GATCGTAC
System: Abf1 (UniProt P14164)
PBM E-score: 0.151
//
Sequence Record: AGACGGCC
System: Abf1 (UniProt P14164)
PBM E-score: -0.0278
//
Sequence Record: GCTTGCGA
System: Abf1 (UniProt P14164)
PBM E-score: 0.0664
//
Sequence Record: ATGATCCA
System: Abf1 (UniProt P14164)
PBM E-score: 0.0885
//
Sequence Record: AGACGGCG
System: Abf1 (UniProt P14164)
PBM E-score: 0.306
//
Sequence Record: GTATAGGA
System: Abf1 (UniProt P14164)
PBM E-score: 0.0694
//
Sequence Record: GGAGCCTA
System: Abf1 (UniProt P14164)
PBM E-score: -0.064
//
Sequence Record: CGAGGTTA
System: Abf1 (UniProt P14164)
PBM E-score: -0.00406
//
Sequence Record: AGTAGAGC
System: Abf1 (UniProt P14164)
PBM E-score: -0.168
//
Sequence Record: AGATCACC
System: Abf1 (UniProt P14164)
PBM E-score: 0.311
//
Sequence Record: GATGGTGA
System: Abf1 (UniProt P14164)
PBM E-score: 0.0135
//
Sequence Record: AAGGTTTC
System: Abf1 (UniProt P14164)
PBM E-score: -0.0855
//
Sequence Record: CGATCACA
System: Abf1 (UniProt P14164)
PBM E-score: 0.161
//
Sequence Record: CGTCGTTC
System: Abf1 (UniProt P14164)
PBM E-score: 0.313
//
Sequence Record: CAATGATA
System: Abf1 (UniProt P14164)
PBM E-score: 0.322
//
Sequence Record: CGCGTACG
System: Abf1 (UniProt P14164)
PBM E-score: 0.271
//
Sequence Record: ACTTTCAA
System: Abf1 (UniProt P14164)
PBM E-score: 0.159
//
Sequence Record: AATGAGAT
System: Abf1 (UniProt P14164)
PBM E-score: 0.148
//
Sequence Record: CGTCGTAA
System: Abf1 (UniProt P14164)
PBM E-score: 0.392
//
Sequence Record: ACACGGCG
System: Abf1 (UniProt P14164)
PBM E-score: 0.305
//
Sequence Record: GAACAATC
System: Abf1 (UniProt P14164)
PBM E-score: 0.0605
//
Sequence Record: TGTCGTAA
System: Abf1 (UniProt P14164)
PBM E-score: 0.103
//
Sequence Record: CCGCGACC
System: Abf1 (UniProt P14164)
PBM E-score: -0.0179
//
Sequence Record: GAATGTCA
System: Abf1 (UniProt P14164)
PBM E-score: 0.278
//
Sequence Record: ATGACCCC
System: Abf1 (UniProt P14164)
PBM E-score: -0.103
//
Sequence Record: GGATCACA
System: Abf1 (UniProt P14164)
PBM E-score: 0.00896
//
Sequence Record: CAACCTCA
System: Abf1 (UniProt P14164)
PBM E-score: -0.0877
//
Sequence Record: CATGATAG
System: Abf1 (UniProt P14164)
PBM E-score: 0.0986
//
Sequence Record: CATCGTAA
System: Abf1 (UniProt P14164)
PBM E-score: 0.106
//
Sequence Record: AGCCCACA
System: Abf1 (UniProt P14164)
PBM E-score: -0.0569
//
Sequence Record: CCGAACCG
System: Abf1 (UniProt P14164)
PBM E-score: -0.0651
//
Sequence Record: TCTCGAGA
System: Abf1 (UniProt P14164)
PBM E-score: 0.302
//
Sequence Record: AAAATCAA
System: Abf1 (UniProt P14164)
PBM E-score: 0.0207
//
Sequence Record: CAACAAAC
System: Abf1 (UniProt P14164)
PBM E-score: -0.112
//
Sequence Record: GAATGATA
System: Abf1 (UniProt P14164)
PBM E-score: 0.397
//
Sequence Record: CGAGCAAA
System: Abf1 (UniProt P14164)
PBM E-score: 0.179
//
Sequence Record: GCCTAGAC
System: Abf1 (UniProt P14164)
PBM E-score: -0.11
//
Sequence Record: GATCAACC
System: Abf1 (UniProt P14164)
PBM E-score: 0.005
//
Sequence Record: CGTCGTAC
System: Abf1 (UniProt P14164)
PBM E-score: 0.399
//
Sequence Record: CTCTTGTC
System: Abf1 (UniProt P14164)
PBM E-score: 0.024
//
Sequence Record: CAATGAGA
System: Abf1 (UniProt P14164)
PBM E-score: -0.0863
//
Sequence Record: GCCAGCAC
System: Abf1 (UniProt P14164)
PBM E-score: -0.0263
//
Sequence Record: AGTGATAG
System: Abf1 (UniProt P14164)
PBM E-score: 0.303
//
Sequence Record: AGATCACG
System: Abf1 (UniProt P14164)
PBM E-score: 0.35
//
Sequence Record: AGATAAGA
System: Abf1 (UniProt P14164)
PBM E-score: 0.194
//
Sequence Record: CATGATAA
System: Abf1 (UniProt P14164)
PBM E-score: 0.356
//
Sequence Record: AGATCAAG
System: Abf1 (UniProt P14164)
PBM E-score: 0.112
//
Sequence Record: TAATGAAA
System: Abf1 (UniProt P14164)
PBM E-score: 0.12
//
Sequence Record: GAAATCAC
System: Abf1 (UniProt P14164)
PBM E-score: 0.322
//
Sequence Record: AGGGAAGC
System: Abf1 (UniProt P14164)
PBM E-score: -0.197
//
Sequence Record: GGATCACC
System: Abf1 (UniProt P14164)
PBM E-score: 0.247
//
Sequence Record: ACTGATAT
System: Abf1 (UniProt P14164)
PBM E-score: 0.108
//
Sequence Record: CTATGTCC
System: Abf1 (UniProt P14164)
PBM E-score: -0.022
//
Sequence Record: CTCGAGGC
System: Abf1 (UniProt P14164)
PBM E-score: -0.193
//
Sequence Record: ACATCTGA
System: Abf1 (UniProt P14164)
PBM E-score: -0.0545
//
Sequence Record: ATCGCTAA
System: Abf1 (UniProt P14164)
PBM E-score: 0.28
//
Sequence Record: GGATATAA
System: Abf1 (UniProt P14164)
PBM E-score: 0.298
//
Sequence Record: GAAATCAA
System: Abf1 (UniProt P14164)
PBM E-score: 0.0471
//
Sequence Record: ACCAAGCT
System: Abf1 (UniProt P14164)
PBM E-score: -0.00876
//
Sequence Record: CCGCGACA
System: Abf1 (UniProt P14164)
PBM E-score: 0.154
//
Sequence Record: GCGAAAGA
System: Abf1 (UniProt P14164)
PBM E-score: -0.024
//
Sequence Record: AGACGGGG
System: Abf1 (UniProt P14164)
PBM E-score: 0.0661
//
Sequence Record: CATCGTAC
System: Abf1 (UniProt P14164)
PBM E-score: 0.382
//
Sequence Record: GTCCCAAC
System: Abf1 (UniProt P14164)
PBM E-score: 0.0207
//
Sequence Record: CGTCGTTA
System: Abf1 (UniProt P14164)
PBM E-score: 0.257
//
Sequence Record: AACTATAT
System: Abf1 (UniProt P14164)
PBM E-score: 0.205
//
Sequence Record: ACACGGCA
System: Abf1 (UniProt P14164)
PBM E-score: 0.294
//
Sequence Record: TAAAGACA
System: Abf1 (UniProt P14164)
PBM E-score: -0.183
//
Sequence Record: GCTCGAGA
System: Abf1 (UniProt P14164)
PBM E-score: -0.143
//
Sequence Record: AGTGGCGA
System: Abf1 (UniProt P14164)
PBM E-score: 0.0606
//
Sequence Record: CTAACGAC
System: Abf1 (UniProt P14164)
PBM E-score: 0.263
//
Sequence Record: CCACGGCG
System: Abf1 (UniProt P14164)
PBM E-score: 0.142
//
Sequence Record: AAAGGATT
System: Abf1 (UniProt P14164)
PBM E-score: -0.105
//
Sequence Record: AATCCAGG
System: Abf1 (UniProt P14164)
PBM E-score: 0.0662
//
Sequence Record: ACATGATA
System: Abf1 (UniProt P14164)
PBM E-score: 0.315
//
Sequence Record: CGATCACC
System: Abf1 (UniProt P14164)
PBM E-score: 0.0211
//
Sequence Record: CTGGTAAA
System: Abf1 (UniProt P14164)
PBM E-score: -0.16
